Read-out: Monocyte Chemoattractant Protein-1 (MCP1), CCL2 (gene 6347)
assay-summary: BSK_LPS_MCP1: BioMAP Diversity Plus: LPS Assay for Monocyte Chemoattractant Protein-1 (MCP1) Biomarker Activity (AID 2283081)
measurement-context: primary human HUVEC with PBMC; actives raise or lower the signal
Calls of active or inactive are those of the source. Rule for the calls: active = hit-call score of the fitted dose curve at least 0.9, where 1 is the maximum; inactive = score below 0.9.
Classes to choose from: active, inactive

[[record]]
molecule = "CC(C)C1(C)N=C(c2ncccc2C(=O)O)NC1=O (centres undefined)"
class_name = "inactive"

[[record]]
molecule = "O=P(O)(O)CCCl"
class_name = "inactive"

[[record]]
molecule = "CC1(C)CCC(=Cc2ccc(Cl)cc2)C1(O)Cn1cncn1 (centres undefined)"
class_name = "inactive"

[[record]]
molecule = "CO/N=C(/C1=NOCCO1)c1ccccc1Oc1ncnc(Oc2ccccc2Cl)c1F"
class_name = "active"


Read the next record carefully.
Task: Per the records of this test, what outcome belongs to CNC(=O)N(C)c1nnc(C(C)(C)C)s1 ?
Result: inactive

Values compiled from PubChem BioAssay (EPA / NIEHS).
